Conditions: mouse, microsomes, 1 µM
Description: DNDI: half life in mouse liver microsomes at a concentration of 1uM
Exercise: for every item that follows, state its recorded t (1 / 2).
Numbers only; they are read as min.

query: Given CCCCCC(C)NCc1coc(-c2ccc(CCCC)cc2)n1 (centres undefined) , state its recorded t (1 / 2).
result: 81

query: Check CCCCOc1ccc(-c2nc(CNC3CC(C)CC(C)(C)C3)co2)cc1 (centres undefined) too.
result: 113

query: Check O/N=C(\Nc1ccccc1)c1ccccc1-c1ccccc1 too.
result: 2

query: Check CCCCCC(C)NCc1coc(-c2ccc(OCCCC)cc2)n1 (centres undefined) too.
result: 84

---

Exercise: for every item that follows, state its recorded chromatographic logD.
Assay: DNDI: Lipophilicity measured in Chromatographic hydrophobicity index (CHI) assay, pH 7.4
Assay type: physicochemical
Details: buffer
Number only, no unit.

query: Given CCCCCC(C)NCc1ccc(-c2ccccc2)cc1 (stereo not given) , state its recorded chromatographic logD.
result: 4.2

query: Check O/N=C(\NCC1CC1)c1ccccc1-c1ccccc1 too.
result: 4.04

query: Check CCCCc1ccc(-c2nc(CNCCC3CCCN3C)co2)cc1 (stereo not given) too.
result: 4.69

query: Check Cc1cc(NCCN(C)C)n2nc(-c3cccc(F)c3)cc2n1 too.
result: 4.09

query: Check CCCCCC(C)NCc1coc(-c2ccc(OCC(=O)c3ccccc3)cc2)n1 (stereo not given) too.
result: 4.16

query: Check O/N=C(/NC1CCCCC1)c1cccc2ccccc12 too.
result: 4.43

query: Check CCc1cccc(N/C(=N/O)c2ccc(OC)cc2)c1 too.
result: 3.76

query: Check CCCCCC(C)NCc1coc(-c2ccc(OC)cc2)n1 (stereo not given) too.
result: 4.16

query: Check Fc1ccc(-c2cc3nc(-c4ccccc4)cc(NC4CCNCC4)n3n2)cc1 too.
result: 4.2

query: Check O/N=C(/NC1CCCCC1)c1cccnc1Oc1ccccc1 too.
result: 3.92

query: Check O/N=C(\NC1CCCCC1)C1CCCCC1 too.
result: 4.41

query: Check O/N=C(\NC1CCCCC1)c1c(F)cccc1F too.
result: 3.67

query: Check Fc1cccc(-c2cc3nc(-c4ccccc4)cc(NCCCN4CCCC4)n3n2)c1 too.
result: 4.79

query: Check O=C1CCCN1CCCNc1cc(-c2ccccc2)nc2cc(-c3ccc(F)cc3)nn12 too.
result: 4.77

query: Check O/N=C(/c1ccccc1-c1ccccc1)N1CCCCC1 too.
result: 4.46

query: Check COc1ccc(/C(=N/O)NC2CCCCC2)cc1 too.
result: 3.82

query: Check CCCCCC(C)NCc1coc(-c2ccc(OC(C)C)cc2)n1 (stereo not given) too.
result: 4.56

query: Check CCC(C)C1C(=O)CC(=O)N1C(=O)OC(C)(C)C (stereo not given) too.
result: 4.54

query: Check O/N=C(\NC1CCCCC1)c1ccccc1Oc1ccccc1 too.
result: 4.43

query: Check O/N=C(\NC1CCCC1)c1ccccc1-c1ccccc1 too.
result: 4.3

query: Check Cc1cc(NCCCN2CCOCC2)n2nc(-c3cccc(F)c3)cc2n1 too.
result: 4.44

query: Check CN1CC(OC(=O)c2ccccc2)=CC1=O too.
result: 2.34

query: Check Cc1cc(NCCCn2ccnc2)n2nc(-c3cccc(F)c3)cc2n1 too.
result: 3.67
